These measurements were taken from paper PMC6212790.

system.under.test: GST-Rok-C97-191 (Bacillus subtilis subsp. subtilis str. …, UniProt O34857 97-191)
Sequence: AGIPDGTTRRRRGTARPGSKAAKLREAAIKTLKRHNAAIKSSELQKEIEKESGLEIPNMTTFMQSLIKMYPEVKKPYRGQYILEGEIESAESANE
protocol.description: protein binding microarray; high values mean tight binding
conditions.used: protein: recombinant; tags: GST (pTH5325, pDEST15-Magic modified); dsDNA, one strand shown
Whole data set: some 33,000 sequences, median “e-score” near -0.038, cut for the highest 2% near 0.33. Many of the other results were omitted from the sample, so the highest values are more common in it than they were.
reported.metric: binding signal (E-score)
Numbers only; they are read as E-score.

Would you please look over these solved cases?
ACGTAGAT	0.219
GGGTAGAA	0.384
AGTTAGAT	0.196
CGGTAGAA	0.411
AGCCAATA	-0.0503
CGGTAGAC	-0.0972
ACAACGAG	-0.0859
TGGTAGAA	0.468
GAAGCTGA	0.014
TCGTAGAA	0.236

# ---- query sequence ----
Exercise: Endpoint output: binding signal of GGGTAGCA . Value?
Solution: -0.148

---

system.under.test: GST-Rok-C97-191 (Bacillus subtilis subsp. subtilis str. …, UniProt O34857 97-191)
Sequence: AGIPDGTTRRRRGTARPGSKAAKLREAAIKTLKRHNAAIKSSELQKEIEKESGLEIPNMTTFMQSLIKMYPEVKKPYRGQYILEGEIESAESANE
protocol.description: protein binding microarray; high values mean tight binding
conditions.used: protein: recombinant; tags: GST (pTH5325, pDEST15-Magic modified); dsDNA, one strand shown
Whole data set: some 33,000 sequences, median “e-score” near -0.038, cut for the highest 2% near 0.33. This is one part of a sample in which the highest values are shown more often than they occur.
Rule: binding signal below 0.06 E-score gives Satisfied. Equal to or above 0.06 E-score gives Not satisfied.

// below: answered sequences
ATTATAGC	Not satisfied
CTCCCATC	Satisfied
TACTAGGA	Not satisfied
CTTATTTA	Not satisfied
CGGTAAAC	Satisfied
CCCGAAAC	Satisfied

Next sequence, please.
Exercise: Is it true that binding signal reported for GGCTAGTA is less than 0.06 E-score?
Solution: Not satisfied

---

system.under.test: GST-Rok-C97-191 (Bacillus subtilis subsp. subtilis str. …, UniProt O34857 97-191)
Sequence: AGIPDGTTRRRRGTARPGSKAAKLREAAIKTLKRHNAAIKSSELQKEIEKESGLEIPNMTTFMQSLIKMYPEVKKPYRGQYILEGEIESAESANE
protocol.description: protein binding microarray; high values mean tight binding
conditions.used: protein: recombinant; tags: GST (pTH5325, pDEST15-Magic modified); dsDNA, one strand shown
Whole data set: some 33,000 sequences, median “e-score” near -0.038, cut for the highest 2% near 0.33. Only a selection was taken, and the highest values are over-represented in it overall.
The entries below are paired with their reported binding signal.
Numbers only; they are read as E-score.

Would you please look over these solved cases?
AATGGCGG	-0.112
CACCTCGC	-0.148
CATTTATA	0.354
AACCAGTA	0.278

Exercise: Endpoint output: binding signal of AACCGGTA . Value?
Solution: 0.182

Exercise: Endpoint output: binding signal of AATTTATA . Value?
Solution: 0.373

Exercise: Endpoint output: binding signal of AATAGTGT . Value?
Solution: 0.242

Exercise: Endpoint output: binding signal of AATATGTA . Value?
Solution: 0.375

Exercise: Endpoint output: binding signal of GATTTATA . Value?
Solution: 0.304

Exercise: Endpoint output: binding signal of AATTTATG . Value?
Solution: 0.209

Exercise: Endpoint output: binding signal of AGCGTACC . Value?
Solution: -0.188

Exercise: Endpoint output: binding signal of GGAGGAAC . Value?
Solution: -0.069

Exercise: Endpoint output: binding signal of AAGCAAGT . Value?
Solution: -0.0255

Exercise: Endpoint output: binding signal of CAAGGTAA . Value?
Solution: 0.166

Exercise: Endpoint output: binding signal of ACAATGGA . Value?
Solution: -0.0232

Exercise: Endpoint output: binding signal of GATGCAGC . Value?
Solution: -0.0978

---

system.under.test: GST-Rok-C97-191 (Bacillus subtilis subsp. subtilis str. …, UniProt O34857 97-191)
Sequence: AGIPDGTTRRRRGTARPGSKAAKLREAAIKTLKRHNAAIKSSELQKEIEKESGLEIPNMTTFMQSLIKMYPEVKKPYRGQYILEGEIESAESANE
protocol.description: protein binding microarray; high values mean tight binding
conditions.used: protein: recombinant; tags: GST (pTH5325, pDEST15-Magic modified); dsDNA, one strand shown
Over roughly 33,000 sequences, “e-score” has its median near -0.038; the highest 2% begin near 0.33. The list comes from a sample in which the highest values are over-represented; it also holds close analogues and randomly drawn sequences.
reported.metric: binding signal (E-score)
Numbers only; they are read as E-score.

Exercise: Endpoint output: binding signal of AACTAGTT . Value?
Solution: 0.439

Exercise: Endpoint output: binding signal of AACTAGTG . Value?
Solution: 0.376

Exercise: Endpoint output: binding signal of AACTAGGG . Value?
Solution: -0.0014

Exercise: Endpoint output: binding signal of CTAACTAC . Value?
Solution: 0.348

Exercise: Endpoint output: binding signal of TACAGGAA . Value?
Solution: 0.0535

---

The entries below are paired with their reported binding signal.
system.under.test: GST-Rok-C97-191 (Bacillus subtilis subsp. subtilis str. …, UniProt O34857 97-191)
Sequence: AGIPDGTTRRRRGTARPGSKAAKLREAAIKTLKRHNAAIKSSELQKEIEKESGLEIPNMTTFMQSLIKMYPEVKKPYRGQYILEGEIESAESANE
protocol.description: protein binding microarray; high values mean tight binding
conditions.used: protein: recombinant; tags: GST (pTH5325, pDEST15-Magic modified); dsDNA, one strand shown
The full ranking holds about 33,000 sequences; the median of “e-score” is about -0.038, and the highest 2% start at about 0.33. The sample holds the highest values, similar sequences and a random draw of the others, so the mix is not that of the screen.
Numbers only; they are read as E-score.

GATATAGA	0.244
ATAAACTA	0.359

Exercise: Endpoint output: binding signal of CTAAACTC . Value?
Solution: 0.0554

Exercise: Endpoint output: binding signal of GCTCACTA . Value?
Solution: 0.0154

Exercise: Endpoint output: binding signal of CAGAGAGA . Value?
Solution: -0.071

Exercise: Endpoint output: binding signal of AGCGCAAG . Value?
Solution: -0.0906

Exercise: Endpoint output: binding signal of ACAGTTGA . Value?
Solution: 0.152

Exercise: Endpoint output: binding signal of GCTACTCA . Value?
Solution: 0.0267

Exercise: Endpoint output: binding signal of CTAAACGA . Value?
Solution: -0.0375

Exercise: Endpoint output: binding signal of AGACAATA . Value?
Solution: 0.0922

Exercise: Endpoint output: binding signal of GAACTACC . Value?
Solution: 0.367

---

system.under.test: GST-Rok-C97-191 (Bacillus subtilis subsp. subtilis str. …, UniProt O34857 97-191)
Sequence: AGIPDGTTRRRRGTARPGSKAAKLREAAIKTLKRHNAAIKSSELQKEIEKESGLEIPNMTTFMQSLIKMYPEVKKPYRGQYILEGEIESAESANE
protocol.description: protein binding microarray; high values mean tight binding
conditions.used: protein: recombinant; tags: GST (pTH5325, pDEST15-Magic modified); dsDNA, one strand shown
The full ranking holds about 33,000 sequences; the median of “e-score” is about -0.038, and the highest 2% start at about 0.33. For the sample, the highest values were picked, then their nearest neighbours and some sequences at random.
reported.metric: binding signal (E-score)
Numbers only; they are read as E-score.

ACTAGATG	0.317
ACTCATCT	-0.0629
ATCTACAT	0.342

Exercise: Endpoint output: binding signal of AAATGTAT . Value?
Solution: 0.27

---

system.under.test: GST-Rok-C97-191 (Bacillus subtilis subsp. subtilis str. …, UniProt O34857 97-191)
Sequence: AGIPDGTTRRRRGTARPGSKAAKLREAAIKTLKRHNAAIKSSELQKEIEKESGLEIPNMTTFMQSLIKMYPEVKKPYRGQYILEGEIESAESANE
protocol.description: protein binding microarray; Rok is a gene silencer of Bacillus subtilis; high values mean tight binding
conditions.used: protein: recombinant; tags: GST (pTH5325, pDEST15-Magic modified); dsDNA, one strand shown
In all, about 33,000 sequences were measured (“e-score”: median about -0.038, highest 2% from about 0.33 on). The list comes from a sample in which the highest values are over-represented; it also holds close analogues and randomly drawn sequences.
The entries below are paired with their reported binding signal.
Numbers only; they are read as E-score.

AGCGGCAC	-0.177
CAGCAAGA	0.159
AGTACGAG	0.125
TAAAAGGA	-0.0824
GCAATCCC	-0.104

Exercise: Endpoint output: binding signal of AAGATATC . Value?
Solution: 0.2

Exercise: Endpoint output: binding signal of GCGCCGGA . Value?
Solution: -0.0972

Exercise: Endpoint output: binding signal of TTATCCAA . Value?
Solution: 0.108

Exercise: Endpoint output: binding signal of CTGAACGC . Value?
Solution: -0.149

Exercise: Endpoint output: binding signal of GCCGCAAC . Value?
Solution: -0.128

Exercise: Endpoint output: binding signal of CACTTGGC . Value?
Solution: -0.143

Exercise: Endpoint output: binding signal of GAACAGAC . Value?
Solution: -0.0366

Exercise: Endpoint output: binding signal of AAGATATA . Value?
Solution: 0.347

Exercise: Endpoint output: binding signal of AAGATAAT . Value?
Solution: 0.339

Exercise: Endpoint output: binding signal of TAGATAGA . Value?
Solution: 0.345

Exercise: Endpoint output: binding signal of GCGTCCGA . Value?
Solution: -0.026
